# assay notes: Half life in mouse at 10 mg/kg, ip administered as single dose
# Type: ADME, organism-based
# protocol conditions: in vivo
observed property: half-life (h)
Report the figure in h without appending any unit label.

Input: Form field: reported half-life of Cc1nc2ccc(-c3ccnc(N)c3)nc2n1-c1ccc(N2CCN(CC#Cc3ccc(N4CCC(C(=O)N5CCC(n6cc(CNc7cccc8c7C(=O)N(C7CCC(=O)NC7=O)C8=O)cn6)CC5)CC4)nc3)CC2)c(F)c1 (stereo unspecified)
Output: 4.75

###

# target desc: von Hippel-Lindau disease tumor suppressor/Dual specificity tyrosine-phosphorylation-regulated kinase 1A (Homo sapiens) (UniProt Q13627+P40337)
# Sequence (P40337 whole entry, looked up, other chains not shown): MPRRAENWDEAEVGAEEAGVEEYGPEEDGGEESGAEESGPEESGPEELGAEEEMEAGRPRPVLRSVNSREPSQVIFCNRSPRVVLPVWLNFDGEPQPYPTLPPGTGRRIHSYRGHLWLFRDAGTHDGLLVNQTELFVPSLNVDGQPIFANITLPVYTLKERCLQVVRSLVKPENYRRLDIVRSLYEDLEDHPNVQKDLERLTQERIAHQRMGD
# assay notes: PROTAC activity at VHL/HibiT-tagged DYRK1A in Flp-In-T-REx-293 cells assessed as induction of degradation of DYRK1A by measuring maximum efficacy at 0.3 uM measured after 24 hrs by NanoBiT luciferase assay relative to control
# Format: cell-based
Listing of entries alongside the reported Emax.
Report the figure in % without appending any unit label.

Examples from the recorded data:
Input: Form field: reported Emax of `Cc1ncsc1-c1ccc(CNC(=O)[C@@H]2C[C@@H](O)CN2C(=O)[C@@H](NC(=O)CCOCCN2CCN(c3ccc(-n4c(C)nc5ccc(-c6ccnc(N)c6)nc54)cc3F)CC2)C(C)(C)C)cc1`
Output: 11

Input: One more compound: `Cc1ncsc1-c1ccc(CNC(=O)[C@@H]2C[C@@H](O)CN2C(=O)[C@@H](NC(=O)CCOCCOCCOCCOCCN2CCN(c3ccc(-n4c(C)nc5ccc(-c6ccnc(N)c6)nc54)cc3F)CC2)C(C)(C)C)cc1`
Output: 0

Input: One more compound: `Cc1ncsc1-c1ccc(CNC(=O)[C@@H]2C[C@@H](O)CN2C(=O)[C@@H](NC(=O)CCOCCOCCN2CCN(c3ccc(-n4c(C)nc5ccc(-c6ccnc(N)c6)nc54)cc3F)CC2)C(C)(C)C)cc1`
Output: 5

New cases:
Input: Form field: reported Emax of `Cc1ncsc1-c1ccc(CNC(=O)[C@@H]2C[C@@H](O)CN2C(=O)[C@@H](NC(=O)CCOCCOCCOCCN2CCN(c3ccc(-n4c(C)nc5ccc(-c6ccnc(N)c6)nc54)cc3F)CC2)C(C)(C)C)cc1`
Output: 0

###

# assay notes: AUC infinity in mouse at 1 mg/kg, iv administered as single dose
# Format: ADME, organism-based
# protocol conditions: in vivo
observed property: AUC(0-inf)

Input: Form field: reported AUC(0-inf) of Cc1nc2ccc(-c3ccnc(N)c3)nc2n1-c1ccc(N2CCN(CC#Cc3ccc(N4CCC(C(=O)N5CCC(n6cc(CNc7cccc8c7C(=O)N(C7CCC(=O)NC7=O)C8=O)cn6)CC5)CC4)nc3)CC2)c(F)c1 (stereo unspecified)
Output: 2470 ng·h/mL

###

# target desc: von Hippel-Lindau disease tumor suppressor/Dual specificity tyrosine-phosphorylation-regulated kinase 1B (Homo sapiens) (UniProt Q9Y463+P40337)
# Sequence (P40337 whole entry, looked up): as the sequence (P40337 whole entry, looked up, other chains not shown) above
# Sequence (Q9Y463 whole entry, looked up): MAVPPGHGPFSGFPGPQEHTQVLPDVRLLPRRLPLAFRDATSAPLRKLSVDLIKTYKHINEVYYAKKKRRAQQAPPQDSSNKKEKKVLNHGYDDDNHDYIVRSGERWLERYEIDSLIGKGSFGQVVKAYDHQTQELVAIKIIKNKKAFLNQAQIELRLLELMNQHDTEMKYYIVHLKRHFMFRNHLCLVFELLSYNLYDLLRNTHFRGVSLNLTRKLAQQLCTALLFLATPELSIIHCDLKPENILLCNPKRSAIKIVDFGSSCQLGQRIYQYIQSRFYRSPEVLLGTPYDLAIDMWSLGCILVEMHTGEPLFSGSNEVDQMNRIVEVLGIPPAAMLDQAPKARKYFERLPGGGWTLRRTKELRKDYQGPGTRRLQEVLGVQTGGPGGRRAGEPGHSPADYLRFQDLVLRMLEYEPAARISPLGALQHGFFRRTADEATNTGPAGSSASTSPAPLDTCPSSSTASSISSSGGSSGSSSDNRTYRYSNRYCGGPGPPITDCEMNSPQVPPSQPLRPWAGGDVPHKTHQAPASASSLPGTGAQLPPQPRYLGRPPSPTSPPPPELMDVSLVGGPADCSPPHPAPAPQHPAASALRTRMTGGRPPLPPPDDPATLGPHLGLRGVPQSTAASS
# assay notes: PROTAC activity at VHL/HibiT-tagged DYRK1B in Flp-In-T-REx-293 cells assessed as induction of degradation of DYRK1B by measuring maximum efficacy at 0.3 uM measured after 24 hrs by NanoBiT luciferase assay relative to control
# Format: cell-based
Listing of entries alongside the reported Emax.
Write the quantity with the unit trailing the number.

Examples from the recorded data:
Input: Form field: reported Emax of `Cc1ncsc1-c1ccc(CNC(=O)[C@@H]2C[C@@H](O)CN2C(=O)[C@@H](NC(=O)CCOCCN2CCN(c3ccc(-n4c(C)nc5ccc(-c6ccnc(N)c6)nc54)cc3F)CC2)C(C)(C)C)cc1`
Output: 0%

Input: One more molecule: `Cc1ncsc1-c1ccc(CNC(=O)[C@@H]2C[C@@H](O)CN2C(=O)[C@@H](NC(=O)CCOCCOCCOCCOCCN2CCN(c3ccc(-n4c(C)nc5ccc(-c6ccnc(N)c6)nc54)cc3F)CC2)C(C)(C)C)cc1`
Output: 0%

Input: One more molecule: `Cc1ncsc1-c1ccc(CNC(=O)[C@@H]2C[C@@H](O)CN2C(=O)[C@@H](NC(=O)CCOCCOCCN2CCN(c3ccc(-n4c(C)nc5ccc(-c6ccnc(N)c6)nc54)cc3F)CC2)C(C)(C)C)cc1`
Output: 2%

New cases:
Input: Form field: reported Emax of `Cc1ncsc1-c1ccc(CNC(=O)[C@@H]2C[C@@H](O)CN2C(=O)[C@@H](NC(=O)CCOCCOCCOCCN2CCN(c3ccc(-n4c(C)nc5ccc(-c6ccnc(N)c6)nc54)cc3F)CC2)C(C)(C)C)cc1`
Output: 0%
